molecular target: Fibroblast growth factor 2 (Homo sapiens) (UniProt P09038); assay: FGF2 binders on small-molecule microarrays, primary screen, biochemical, small-molecule microarray, 635/667 nm fluorescence (AID 1133); details: small-molecule microarray binding, FGF2, fluorescence 635/667; higher = more signal
Sequence (P09038 whole entry, looked up): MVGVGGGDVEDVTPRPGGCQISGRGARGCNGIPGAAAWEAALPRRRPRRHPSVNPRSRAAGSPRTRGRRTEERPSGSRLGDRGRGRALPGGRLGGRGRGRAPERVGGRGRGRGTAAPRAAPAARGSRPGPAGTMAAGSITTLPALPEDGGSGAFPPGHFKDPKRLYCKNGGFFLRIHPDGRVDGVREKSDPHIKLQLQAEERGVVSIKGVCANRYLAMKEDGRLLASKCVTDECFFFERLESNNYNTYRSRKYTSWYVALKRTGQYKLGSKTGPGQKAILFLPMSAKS
QUANTITY MEASURED: composite z-score

SMILES STRUCTURE: Cc1ccc(S[C@]2(C(=O)NC3CC3)CC(=O)N(C3Cc4ccccc4C3)[C@@H]2c2ccc(CO)cc2I)cc1
QUANTITY MEASURED: composite z-score
ENDPOINT VALUE: -0.115
--
SMILES STRUCTURE: C#CCN(C(=O)OC(C)(C)C)[C@H](CO)c1ccccc1
QUANTITY MEASURED: composite z-score
ENDPOINT VALUE: 0.579
--
SMILES STRUCTURE: COC(=O)C(CC#Cc1ccc2c(c1)[C@]1(C(=O)N2)[C@H](C(=O)N2CCCCCCC2)[C@H]2C(=O)O[C@H](c3ccccc3)[C@H](c3ccccc3)N2[C@@H]1c1ccc(OCCO)cc1)C(=O)OC
QUANTITY MEASURED: composite z-score
ENDPOINT VALUE: 1.6
--
SMILES STRUCTURE: COC(=O)[C@@]1(Cc2ccc(F)cc2)[C@H]2c3cc(C(=O)N(C)C)n(CCF)c3C[C@H]2CN1C(=O)c1ccccc1
QUANTITY MEASURED: composite z-score
ENDPOINT VALUE: -0.162

* * *

assay: mitochondrial membrane potential change in A549 cells, profiling panel, cell-based, JC-1 fluorescence, basal, 24 h, 100 nL (AID 1138); settings: higher = more signal;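 also: A549 lung adenocarcinoma cells under basal conditions with no added stimulus; test concentration not given here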

COMPOUND: COCCCNC(=O)[C@@]1(Cc2ccccc2I)c2ccccc2C(=O)N(Cc2ccccc2OC)[C@H]1c1ccc(CO)cc1
z-score: 1.93
--
COMPOUND: CCCCCCc1nc(Cc2cc(OC)c(OC)c(OC)c2)c(C)c2c1[Si](C(C)C)(C(C)C)OC2
z-score: 0.374
--
COMPOUND: CN1C2C=C(c3ccc(CO)cc3)C(C3C(=O)N(C(N)=O)C(=O)C32)C1C1CC1 (stereo not given)
z-score: -0.572
--
COMPOUND: COc1ccc(C(O)C2C=CC3C(=O)N(C)C(=O)C3N2Nc2ccccc2)cc1 (stereo not given)
z-score: 0.436
--
COMPOUND: COc1cc(Cc2cc3c(c(CCc4ccccc4)n2)[Si](C(C)C)(C(C)C)O[C@H]3c2ccccc2)cc(OC)c1OC
z-score: -1.64

* * *

test: binders of probe aFGF10 on microarray, primary screen, stem cell growth factor project, biochemical, small-molecule microarray, fluorescence 635/667 (AID 1071); settings: higher = more signal;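 also: score merges 667 nm spot intensity and signal to noise from triplicate slides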
Is composite z-score at least 0.3? Then Y. If not, N.

COMPOUND: CC[C@@H](O[Si](C#C[Si](C(C)C)(C(C)C)C(C)C)(C(C)C)C(C)C)c1cn(Cc2cccc(Cl)c2)nn1
CLASS LABEL: N
--
COMPOUND: C=CCNC(=O)[C@H]1[C@@H]2C(=O)O[C@@H](c3ccccc3)[C@@H](c3ccccc3)N2[C@@H](c2ccc(OCCO)cc2)[C@]12C(=O)Nc1ccc(C#Cc3ccc(OC)cc3)cc12
CLASS LABEL: Y
--
COMPOUND: CC[C@H]1C2=C3C(CC[C@H]4C(OCc5ccc(F)cc5C(F)(F)F)OC[C@](C)([C@@H]34)N(C(=O)OC(C)(C)C)C2)C(COC(C)=O)C1COC(C)=O (some centres undefined)
CLASS LABEL: Y
--
COMPOUND: COc1cc2c(cc1O)C(C)N(Cc1sc3ccccc3c1Cl)CC2 (centres undefined)
CLASS LABEL: N
--
COMPOUND: C=CCOC(=O)[C@H]1[C@@H]2C(=O)O[C@@H](c3ccccc3)[C@@H](c3ccccc3)N2[C@@H](c2ccc(OCCOC(=O)[C@H]3C[C@H]4C(=O)NCC(=O)N4[C@H]3c3ccc(O)cc3)cc2)[C@]12C(=O)Nc1ccccc12
CLASS LABEL: Y
--
COMPOUND: COC(=O)[C@@]1(Cc2ccc(F)cc2)[C@H]2c3cc(C(=O)N(C)C)n(Cc4ccsc4Br)c3C[C@H]2CN1C(=O)c1ccccc1
CLASS LABEL: Y
--
COMPOUND: COCCOC(=O)N1C(=O)[C@@]2(c3cc(C#CC4=CCCCC4)ccc31)[C@H](C(=O)N1CCCCCCC1)[C@H]1C(=O)O[C@H](c3ccccc3)[C@H](c3ccccc3)N1[C@@H]2c1ccccc1OCCO
CLASS LABEL: N
--
COMPOUND: C=CCNC(=O)[C@@H]1[C@H]2C(=O)O[C@H](c3ccccc3)[C@H](c3ccccc3)N2[C@H](c2ccc(OCCO)cc2)[C@@]12C(=O)Nc1ccc(C#CC3=CCCCC3)cc12
CLASS LABEL: Y
--
COMPOUND: C=C(COC)/C(=C/C[C@@H](OC(=O)c1ccncc1)c1ccccc1OCCO)c1cnc2ccccc2c1
CLASS LABEL: Y
--
COMPOUND: C[C@]1(C(=O)NCC(F)(F)F)c2ccccc2C(=O)N(Cc2cc(C(F)(F)F)cc(C(F)(F)F)c2)[C@H]1c1ccc(CO)cc1
CLASS LABEL: N
--
COMPOUND: C=C(COC)C(=O)CC[C@H](OC(C)=O)c1ccc(CO)o1
CLASS LABEL: N
--
COMPOUND: CCc1cccc(NC(=O)O[C@H]2[C@H](OC(=O)Nc3ccccc3-c3ccccc3)[C@H](OC(=O)Nc3ccccc3-c3ccccc3)[C@@H](OC)O[C@@H]2CO)c1
CLASS LABEL: Y
--
COMPOUND: Cc1ccc(N2C(=O)c3ccccc3[C@@H](C(=O)NCCN3CCOCC3)[C@@H]2c2ccc(CO)cc2)nc1
CLASS LABEL: N
--
COMPOUND: O=C1N(Cc2ccccc2)Cc2ccccc2C[C@@]12COC(c1ccc(OCCCO)cc1)=N2
CLASS LABEL: N
